Test system: Spring Wheat “Freya”
Assay: Test 1B glasshouse assay, post-emergence herbicidal activity against cereal crops
Type: in vivo
Settings: herbicide 30 g/ha, cloquintocet-mexyl 50 g/ha
This section presents compounds with their documented Percentage Phytotoxicity Spring Wheat “Freya” values.
quantity-measured: Percentage Phytotoxicity Spring Wheat “Freya” (%)

1. Cc1cc(C)c(C2C(=O)C[C@H](CCNC(=O)c3cc(Cl)ccn3)C2=O)c(C)c1 (stereo partly shown) [Compound A128]
3
2. Cc1cc(C)c(C2C(=O)CC(CCNC(=O)c3cc(Cl)ccn3)C2=O)c(C)c1 (racemic) [Compound A23]
5
3. Cc1cc(C)c(C2C(=O)CC(CCNC(=O)c3ccc(Br)cn3)C2=O)c(C)c1 (racemic) [Compound A120]
18
4. Cc1cc(C)c(C2C(=O)C[C@H](CCNC(=O)c3cccc(F)n3)C2=O)c(C)c1 (stereo partly shown) [Compound A113]
3
5. Cc1cc(C)c(C2C(=O)CC(CCNC(=O)c3cccc(F)n3)C2=O)c(C)c1 (racemic) [Compound A89]
13
6. Cc1cc(C)c(C2C(=O)C[C@@H](CCNC(=O)c3cccc(F)n3)C2=O)c(C)c1 (stereo partly shown) [Compound A112]
25
7. Cc1cc(C)c(C2C(=O)C[C@@H](CCNC(=O)c3cc(Cl)ccn3)C2=O)c(C)c1 (stereo partly shown) [Compound A127]
0
